This collection of values is drawn from patent US20130101595A1.

- TEST SYSTEM: T1, recombinant human IL-18 (rhIL-18) (human, UniProt Q14116 37-193, biotinylated (D-biotinyl-epsilon-aminocaproic acid NHS ester, 2:1 molar ratio of biotin to rhIL-18) in the BIAcore assay; not said to be biotinylated in the KG-1 assay)
- T1 construct: also called full length human IL-18; biotinylated rhIL-18
- TEST METHOD NOTES: SPR (BIAcore), biotinylated rhIL-18 on streptavidin chip, antibody in solution
READOUT: koff (s⁻¹)
The reply should contain only the number, in s⁻¹.

For orientation, consider the following solved cases.
2E1 mutant L34S + H53Y (scFv, V domains shown) VH: QVQLVQSGAEVKKPGASMKVSCKTSGYTFTGYYIHWVRQAHGQGFEWIGRLNPYTGDANFAEKFQGRVALTRDTSISTAYLQLDSLKSDDTAVYYCAGKEGAWGQGTLVTVSS VL: SSELTQDPAVSVALGQTVRITCQGDSLRHFYPSWYQQKPGQAPVLVIYGKNNRPSGIPDRFSGSGSGNTGSLTITGAQAEDEADYYCGSRDSSGIHVVFGGGTKVTVLG :: 5.28e-05
2E1 mutant H53R (scFv, V domains shown) VH: QVQLVQSGAEVKKPGASMKVSCKTSGYTFTGYYIHWVRQAHGQGFEWIGRLNPRTGDANFAEKFQGRVALTRDTSISTAYLQLDSLKSDDTAVYYCAGKEGAWGQGTLVTVSS VL: SSELTQDPAVSVALGQTVRITCQGDSLRHFYPNWYQQKPGQAPVLVIYGKNNRPSGIPDRFSGSGSGNTGSLTITGAQAEDEADYYCGSRDSSGIHVVFGGGTKVTVLG :: 0.00234
2E1 mutant L34S (scFv, V domains shown) VH: QVQLVQSGAEVKKPGASMKVSCKTSGYTFTGYYIHWVRQAHGQGFEWIGRLNPTTGDANFAEKFQGRVALTRDTSISTAYLQLDSLKSDDTAVYYCAGKEGAWGQGTLVTVSS VL: SSELTQDPAVSVALGQTVRITCQGDSLRHFYPSWYQQKPGQAPVLVIYGKNNRPSGIPDRFSGSGSGNTGSLTITGAQAEDEADYYCGSRDSSGIHVVFGGGTKVTVLG :: 0.000169

Then this binder:
(Q) Complete the entry with koff for 2E1 mutant L34S + H53R + H58Q (scFv, V domains shown) VH: QVQLVQSGAEVKKPGASMKVSCKTSGYTFTGYYIHWVRQAHGQGFEWIGRLNPRTGDAQFAEKFQGRVALTRDTSISTAYLQLDSLKSDDTAVYYCAGKEGAWGQGTLVTVSS VL: SSELTQDPAVSVALGQTVRITCQGDSLRHFYPSWYQQKPGQAPVLVIYGKNNRPSGIPDRFSGSGSGNTGSLTITGAQAEDEADYYCGSRDSSGIHVVFGGGTKVTVLG
(A) 6.18e-05
